# Test system: HCC827
# ASSAY COMMENT: Impedance-based TCRP of HCC827 cells, mutant EGFR (Del E746_A750)
# Type: cell-based
# EXPERIMENTAL CONTEXT: Homo sapiens, HCC827, 96 h, read-out: IC50 (TCRP)
OBSERVED PROPERTY: pIC50
# log scale: pIC50 equals minus log10 of the concentration in mol/L

Ask | So what's the measured pIC50 for this one? CS(=O)(=O)CCNCc1ccc(-c2ccc3ncnc(Nc4ccc(OCc5cccc(F)c5)c(Cl)c4)c3c2)o1
Reply | 7.41

---

# System: C6
# ASSAY COMMENT: Impedance-based TCRP of PDGFR addicted C6 glioma cells
# Assay type: cell-based, rat
# EXPERIMENTAL CONTEXT: Rattus norvegicus, C6, 96 h, read-out: IC50 (TCRP)
OBSERVED PROPERTY: pIC50
# pIC50: negative log10 of molar concentration; output just the value

Ask | Param item = CNC(=O)c1cc(Oc2ccc(NC(=O)Nc3ccc(Cl)c(C(F)(F)F)c3)cc2)ccn1 ; retrieve measured pIC50.
Reply | 6.72
